Molecular target: Cell surface CD73 of U87 MG human glioblastoma cells (Homo sapiens)
Construct: Cell surface CD73 catalyzes the conversion of adenosine monophosphate (AMP) to adenosine and inorganic phosphate; endogenous in cells
Experiment: CD73 Cellular Assay
Conditions: 5000 cells per well, 30 μM AMP, PiColorLock phosphate detection in supernatant, read-out: Potency (IC50)
pIC50: −log10 of the molar value.
Assign pIC50 to each entry below.

O=P(O)(O)CP(=O)(O)OC[C@H]1O[C@@H](c2ccc3c(NCC4CC4)nc(Cl)nc3c2)[C@H](O)[C@@H]1O = > 8.00
Cc1nc(NCc2ccccc2)c2ccc([C@@H]3O[C@H](COP(=O)(O)CP(=O)(O)O)[C@@H](O)[C@H]3O)cc2n1 = > 8.00
O=P(O)(O)CP(=O)(O)OC[C@H]1O[C@@H](c2ccc3c(NCc4ccccc4)nc(Cl)nc3c2)[C@H](O)[C@@H]1O = > 8.00
O=P(O)(O)CP(=O)(O)OC[C@H]1O[C@@H](c2ccc3c(NCC4CCCC(O)C4)nc(Cl)nc3c2)[C@H](O)[C@@H]1O (stereo partly drawn) = 6.00 to 7.00
O=P(O)(O)CP(=O)(O)OC[C@H]1O[C@@H](c2ccc3c(NCc4ccccc4)nc(Cl)nc3c2)[C@@H](F)[C@@H]1O = 7.00 to 8.00

Proceed to the following item.
Given the entry O=P(O)(O)CP(=O)(O)OC[C@H]1O[C@@H](c2ccc3c(NC4CCC4)nc(Cl)nc3c2)[C@H](O)[C@@H]1O , report its measured pIC50.
> 8.00

---

Assign pIC50 to each entry below.
Biological target: Recombinant Human 5′-Nucleotidase (CD73) (Homo sapiens, UniProt P21589)
Construct: CHO derived CD73 (Trp27-Lys547), with a C-terminal 6-His tag; 6-His (C)
Assay: CD73 Enzyme Assay
Conditions: 0.5 nM human CD73, 30 μM AMP, PiColorLock phosphate detection, OD 635 nm; read-out: Potency (IC50)
pIC50: −log10 of the molar value.

These solved cases illustrate the format of a correct answer.
O=P(O)(O)CP(=O)(O)OC[C@H]1O[C@@H](c2ccc3c(N[C@H]4CCOC4)nc(Cl)nc3c2)[C@H](O)[C@@H]1O [Compound 37] = 7.00 to 8.00
O=P(O)(O)CP(=O)(O)OC[C@H]1O[C@@H](c2ccc3c(N4CCC(c5ccccc5)C4)nc(Cl)nc3c2)[C@H](O)[C@@H]1O (stereo partly shown) [Compound 35] = 7.00 to 8.00
O=P(O)(O)CP(=O)(O)OC[C@H]1O[C@@H](c2ccc3c(NC4CCCCC4)nc(Cl)nc3c2)[C@H](O)[C@@H]1O [Compound 31] = > 8.00

Given the entry O=P(O)(O)CP(=O)(O)OC[C@H]1O[C@@H](c2ccc3c(NCC4CCC4)nc(Cl)nc3c2)[C@H](O)[C@@H]1O [Compound 8] , report its measured pIC50.
> 8.00

---

Assign pIC50 to each entry below.
Molecular target: Recombinant Human 5′-Nucleotidase (CD73) (Homo sapiens)
Construct: CHO derived CD73 (Trp27-Lys547), with a C-terminal 6-His tag; 6-His (C)
Sequence (P21589 27-547): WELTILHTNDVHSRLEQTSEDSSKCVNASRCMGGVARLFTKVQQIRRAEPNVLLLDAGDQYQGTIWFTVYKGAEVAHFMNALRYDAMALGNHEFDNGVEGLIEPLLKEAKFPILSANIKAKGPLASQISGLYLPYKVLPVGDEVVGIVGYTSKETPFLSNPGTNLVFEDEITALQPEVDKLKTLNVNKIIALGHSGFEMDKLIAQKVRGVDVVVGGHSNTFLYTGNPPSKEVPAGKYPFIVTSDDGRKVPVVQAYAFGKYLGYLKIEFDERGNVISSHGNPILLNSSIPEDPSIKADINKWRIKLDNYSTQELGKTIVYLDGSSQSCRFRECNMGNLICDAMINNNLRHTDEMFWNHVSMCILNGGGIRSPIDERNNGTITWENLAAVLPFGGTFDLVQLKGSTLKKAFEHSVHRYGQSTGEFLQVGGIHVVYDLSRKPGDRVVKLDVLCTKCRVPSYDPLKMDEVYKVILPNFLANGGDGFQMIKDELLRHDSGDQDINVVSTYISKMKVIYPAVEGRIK
Assay: CD73 Enzyme Assay
Conditions: 0.5 nM human CD73, 30 μM AMP, PiColorLock phosphate detection, OD 635 nm; read-out: Potency (IC50)
pIC50: −log10 of the molar value.

These solved cases illustrate the format of a correct answer.
O=P(O)(O)CP(=O)(O)OC[C@H]1O[C@@H](c2ccc3c(NCc4ccccc4Cl)nc(Cl)nc3c2)[C@H](O)[C@@H]1O [Compound 23] = > 8.00
CN(c1nc(Cl)nc2cc([C@@H]3O[C@H](COP(=O)(O)CP(=O)(O)O)[C@@H](O)[C@H]3O)ccc12)C1CCCC1 [Compound 3] = 7.00 to 8.00
O=P(O)(O)CP(=O)(O)OC[C@H]1O[C@@H](c2ccc3c(N4CCCC4)nc(Cl)nc3c2)[C@H](O)[C@@H]1O [Compound 29] = 7.00 to 8.00

Proceed to the following item.
Test system Recombinant Human 5′-Nucleotidase (CD73) (Homo sapiens); read-out pIC50; what value for O=P(O)(O)CP(=O)(O)OC[C@H]1O[C@@H](c2cccc3c(NCc4ccccc4)nc(Cl)nc23)[C@H](O)[C@@H]1O [Compound 32] ?
6.00 to 7.00
